Origin of values: PubChem BioAssay AID588590

Target: DNA polymerase iota (Homo sapiens) (UniProt Q9UNA4)
Sequence (Q9UNA4 whole entry, looked up): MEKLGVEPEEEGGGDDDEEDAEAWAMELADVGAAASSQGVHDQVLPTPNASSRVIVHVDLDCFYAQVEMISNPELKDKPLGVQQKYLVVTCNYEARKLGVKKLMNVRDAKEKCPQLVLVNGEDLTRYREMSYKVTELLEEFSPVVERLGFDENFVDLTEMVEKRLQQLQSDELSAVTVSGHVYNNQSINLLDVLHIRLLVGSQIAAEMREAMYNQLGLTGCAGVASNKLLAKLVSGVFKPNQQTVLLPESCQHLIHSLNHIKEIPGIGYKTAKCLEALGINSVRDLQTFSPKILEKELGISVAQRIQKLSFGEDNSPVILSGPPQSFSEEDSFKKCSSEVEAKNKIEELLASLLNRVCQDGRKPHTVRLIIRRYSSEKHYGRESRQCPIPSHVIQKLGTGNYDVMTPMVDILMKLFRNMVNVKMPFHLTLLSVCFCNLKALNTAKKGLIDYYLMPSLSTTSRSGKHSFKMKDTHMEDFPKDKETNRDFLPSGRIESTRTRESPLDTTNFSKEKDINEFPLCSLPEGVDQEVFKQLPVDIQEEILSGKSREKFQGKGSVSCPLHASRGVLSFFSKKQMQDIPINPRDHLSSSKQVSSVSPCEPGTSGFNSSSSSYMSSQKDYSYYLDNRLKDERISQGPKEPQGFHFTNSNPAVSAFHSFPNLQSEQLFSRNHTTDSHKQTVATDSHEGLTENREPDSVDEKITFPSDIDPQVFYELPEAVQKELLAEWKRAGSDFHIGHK
Test: qHTS for Inhibitors of Polymerase Iota
Settings: Pol iota fluorescent replication assay, 10 min; series mostly up to 115 µM
Among all 390,000 compounds or so, about 4,000 (1%) were called active. Roughly 7% stayed inconclusive and do not appear here. Calls follow the shape of the dose curve; as a rule, active = well fitted inhibition curve with a large enough effect; inconclusive = small, poorly fitted or top-dose-only effect, or another doubt; inactive = no such curve, though single readings can be large or run the other way. The full list was thinned out, with actives kept by preference.
Just give me one of these, please: active, inactive

{"columns": ["COMPOUND", "CATEGORY"],
 "data": [
  ["C/C(=N\\Nc1ccccc1)c1cccs1", "inactive"]
]}

What did the test return for `CCOCCCn1c(SCC(=O)Nc2ccc(CC)cc2)nc2ccccc2c1=O` ?
inactive

What did the test return for `COc1cc(Cl)ccc1Nc1ncc(C(=O)N2CCN(c3ccccc3OC)CC2)c2ccccc12` ?
inactive

What did the test return for `Cn1c(CC(=O)NNC(=O)c2ccccc2F)nc2ccccc21` ?
active

What did the test return for CCCN1C(=O)C(NS(=O)(=O)c2ccc(N)cc2)(C(F)(F)F)C(C(=O)OC)=C1C (stereo not drawn) ?
inactive

What did the test return for `COC(=O)c1ccccc1NC(=O)c1ccc2c(=O)n3c(nc2c1)CCCCC3` ?
inactive

What did the test return for CCc1ccc(N2CC(C(=O)N3CCCCCC3)CC2=O)cc1 (stereo not drawn) ?
inactive

What did the test return for `CCOc1ccc(CNCCSc2nnnn2C)cc1` ?
inactive

What did the test return for `Cc1ccc(-n2c(=O)c3cccnc3n2CC(=O)Nc2ccccc2C(F)(F)F)cc1C` ?
inactive

What did the test return for `COc1ccc(CCNC(=O)c2nn(C)c3c2CSc2ccccc2-3)cc1OC` ?
inactive

What did the test return for `Cc1ccc(Nc2c(-c3ccc(C)cc3)nc3cnccn23)cc1` ?
inactive

What did the test return for `COc1ccc(S(=O)(=O)N(CC(=O)NCc2ccco2)c2ccc(F)cc2)cc1` ?
inactive

What did the test return for `O=C1CCC[C@@H]2C[C@@]3(C[C@@H]4CCN1[C@H]24)Nc1ccccc1NC3=NCc1ccccc1` ?
inactive

What did the test return for `COc1ccc(-n2nc(C(=O)NCCc3ccc(Cl)cc3)c3c4ccccc4n(C)c3c2=O)cc1Cl` ?
inactive

What did the test return for `CCc1ccc(-c2cc(C(=O)NN3CCN(C)CC3)c3ccccc3n2)cc1` ?
inactive

What did the test return for `COc1cc2[nH]c(C)c(CCN3CCN(c4ccccc4)CC3)c2cc1OC` ?
inactive

What did the test return for `CCCCC(=O)Nc1nnc(S(=O)(=O)N(C)Cc2ccco2)s1` ?
inactive

What did the test return for `Cc1ccc2[nH]c3c(=O)n(CC(=O)NC(C)C)ncc3c2c1` ?
inactive

What did the test return for `Cc1ccc(S(=O)(=O)N(CC(=O)NCc2ccco2)c2ccccc2C)cc1` ?
inactive

What did the test return for `CCOc1ccc(CNC(=O)C2CCN(c3nnc(-n4cccc4CNc4ccc(C)cc4)s3)CC2)cc1OC` ?
inactive

What did the test return for `Cc1ccc(/C=N/NC(=S)NC2CCCCC2)o1` ?
inactive
